# target under test: GluA1o-γ8 (GRIA1o-CACNG8 fusion construct) (Homo sapiens (Human), UniProt P42261+Q8WXS5)
# Sequence (P42261 other isoform, or with tags, fused parts or gaps): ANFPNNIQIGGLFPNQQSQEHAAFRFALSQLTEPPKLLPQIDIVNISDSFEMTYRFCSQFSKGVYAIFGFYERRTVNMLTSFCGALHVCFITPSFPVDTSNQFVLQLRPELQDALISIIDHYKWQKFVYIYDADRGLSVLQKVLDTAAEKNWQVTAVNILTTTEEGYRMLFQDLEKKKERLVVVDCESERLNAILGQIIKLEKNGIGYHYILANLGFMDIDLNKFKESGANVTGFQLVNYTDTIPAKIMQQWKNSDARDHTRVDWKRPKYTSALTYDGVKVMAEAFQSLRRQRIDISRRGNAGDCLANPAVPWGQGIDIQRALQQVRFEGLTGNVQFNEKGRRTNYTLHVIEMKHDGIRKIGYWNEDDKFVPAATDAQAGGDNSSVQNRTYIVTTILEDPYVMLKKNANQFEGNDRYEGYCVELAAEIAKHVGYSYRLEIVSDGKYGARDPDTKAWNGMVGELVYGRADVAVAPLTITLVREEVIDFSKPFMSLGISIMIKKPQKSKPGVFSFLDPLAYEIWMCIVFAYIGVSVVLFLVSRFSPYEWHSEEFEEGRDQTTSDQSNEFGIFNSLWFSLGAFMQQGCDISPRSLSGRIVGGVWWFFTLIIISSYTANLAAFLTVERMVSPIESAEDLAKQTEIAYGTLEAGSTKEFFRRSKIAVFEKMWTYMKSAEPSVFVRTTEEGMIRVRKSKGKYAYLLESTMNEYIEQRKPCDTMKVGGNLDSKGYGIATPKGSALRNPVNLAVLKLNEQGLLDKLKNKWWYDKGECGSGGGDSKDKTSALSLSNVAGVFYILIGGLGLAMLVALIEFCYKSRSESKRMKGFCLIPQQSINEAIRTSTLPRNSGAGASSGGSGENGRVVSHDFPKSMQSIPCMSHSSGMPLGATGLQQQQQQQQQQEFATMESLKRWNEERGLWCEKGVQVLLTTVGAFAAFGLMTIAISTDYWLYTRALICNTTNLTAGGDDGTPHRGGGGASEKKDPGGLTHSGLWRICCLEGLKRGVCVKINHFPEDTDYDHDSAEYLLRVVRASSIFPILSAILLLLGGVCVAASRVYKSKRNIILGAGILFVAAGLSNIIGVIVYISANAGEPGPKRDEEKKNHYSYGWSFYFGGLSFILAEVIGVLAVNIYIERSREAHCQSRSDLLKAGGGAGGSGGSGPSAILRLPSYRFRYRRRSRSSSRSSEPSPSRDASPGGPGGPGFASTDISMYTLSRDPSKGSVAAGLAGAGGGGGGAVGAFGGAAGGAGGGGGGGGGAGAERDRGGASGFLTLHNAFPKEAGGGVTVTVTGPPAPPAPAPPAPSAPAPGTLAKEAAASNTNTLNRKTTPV
# assay procedure: Calcium flux assay (FLIPR), inhibition of TARP γ8 dependent AMPA receptor activity
# experimental conditions: GluA1o-γ8 (GRIA1o-CACNG8 fusion) in HEK293 cells, calcium flux after 15 μM glutamate
experimental endpoint: IC50 (µM)
Give just the number in µM; leave the unit off.

-- ask Param readout = IC50; param system = GluA1o-γ8 (GRIA1o-CACNG8 fusion construct) (Homo sapiens (Human), UniProt P42261+Q8WXS5); param query = O=c1[nH]c2ccc(-n3c(-c4ccccc4)nc4ccc(N5CCCCC5)nc43)cc2s1 [Example 64] ; response: value
-- reply 0.00501

-- ask Try O=c1[nH]c2ccc(-n3c(-c4ccccc4)nc4ccc(N5CCOCC5)nc43)cc2s1 [Example 65] next.
-- reply 0.316

-- ask Try O=c1[nH]c2ccc(-n3cnc4ccc(C(F)(F)F)nc43)cc2s1 [Example 190] next.
-- reply 0.316

-- ask Try CCc1nc2ccc(C(F)(F)F)nc2n1-c1ccc2[nH]c(=O)sc2c1 [Example 44] next.
-- reply 0.000398

----------
# target under test: GluA1o-γ8 (GRIA1o-CACNG8 fusion construct) (Homo sapiens (Human), UniProt P42261+Q8WXS5)
# assay procedure: Calcium flux assay (FLIPR), inhibition of TARP γ8 dependent AMPA receptor activity
# experimental conditions: GluA1o-γ8 (GRIA1o-CACNG8 fusion) in HEK293 cells, calcium flux after 15 μM glutamate
For each record, write down the corresponding log10 of IC50.
Use the decimal logarithm of IC50 (nM).

-- ask // log10 of IC50 lookup, key: O=C1Cc2cc(-n3c(-c4ccc(C(F)(F)F)cc4)nc4cccnc43)ccc2N1 [Example 178]
-- reply 3.50

-- ask Try Cc1ccc2nc(-c3ccc(F)cc3)n(-c3ccc4[nH]ncc4c3)c2n1 [Example 4] next.
-- reply 0.00

-- ask Try O=c1[nH]c2ccc(-n3c(C(F)(F)F)nc4c(N5CCOCC5)cc(C(F)(F)F)nc43)cc2s1 [Example 230] next.
-- reply 0.00

-- ask Try OC/C=C/c1cc(-n2c(C(F)(F)F)nc3ccc(C(F)(F)F)nc32)cc2cn[nH]c12 [Example 219] next.
-- reply 1.20

-- ask Try FCCCc1cc2ccc(C(F)(F)F)nc2n1-c1cc(Cl)c2[nH]ncc2c1 [Example 372] next.
-- reply -1.50

-- ask Try CC(C)c1cc2cccnc2n1-c1cc(F)c2c(c1)CC(=O)N2 [Example 361] next.
-- reply 0.90

-- ask Try Cc1cc(-n2c(C)cc3ccc(C(F)(F)F)nc32)cc2c1NC(=O)C2 [Example 331] next.
-- reply -2.00

-- ask Try Cc1cc(-n2c(-c3ccc(F)cc3)nc3ccc(C(F)F)nc32)cc2cn[nH]c12 [Example 228] next.
-- reply -1.80

----------
# target under test: GluA1o-γ8 (GRIA1o-CACNG8 fusion construct) (Homo sapiens (Human), UniProt P42261+Q8WXS5)
# assay procedure: Calcium flux assay (FLIPR), inhibition of TARP γ8 dependent AMPA receptor activity
# experimental conditions: GluA1o-γ8 (GRIA1o-CACNG8 fusion) in HEK293 cells, calcium flux after 15 μM glutamate
experimental endpoint: pIC50
The scale used: pIC50 is minus the common logarithm of the concentration in molar units.

-- ask // pIC50 lookup, key: CCc1nc2ccc(C(F)(F)F)nc2n1-c1ccc2c(c1)CC(=O)N2
-- reply 7.90

-- ask Try Cc1cc(-n2cc(O)c3ccc(C(F)(F)F)nc32)cc2cn[nH]c12 next.
-- reply 7.10

-- ask Try Cc1ccc2nc(C(C)C)n(-c3ccc4[nH]c(=O)sc4c3)c2n1 next.
-- reply 8.80

-- ask Try O=C1Cc2cc(-n3c(C4CC4)nc4ccc(C(F)(F)F)nc43)ccc2N1 next.
-- reply 8.10

-- ask Try O=c1[nH]c2ccc(-n3c(C4CCOC4)nc4ccc(C(F)(F)F)nc43)cc2o1 (racemic) next.
-- reply 6.50

-- ask Try FC(F)(F)c1ccc2ncn(-c3cc(Cl)c4[nH]ncc4c3)c2n1 next.
-- reply 8.60

-- ask Try Cc1cc(-n2c(C(F)F)nc3ccc(C(F)(F)F)nc32)cc2c1NC(=O)C2 next.
-- reply 9.80

-- ask Try O=c1[nH]c2ccc(-n3c(-c4ccccc4)nc4ccc(Br)nc43)cc2s1 next.
-- reply 9.30

-- ask Try Cc1cc(-n2c(C(F)F)nc3ccc(C(F)(F)F)nc32)cc2cn[nH]c12 next.
-- reply 10.30

-- ask Try CC(C)(C)OC(=O)N1CC(c2nc3ccc(C(F)(F)F)nc3n2-c2ccc3c(c2)CC(=O)N3)C1 next.
-- reply 5.50

-- ask Try Fc1ccc(-c2nc3c(N4CCOCC4)ccnc3n2-c2ccc3[nH]ncc3c2)cc1 next.
-- reply 8.20

-- ask Try CCc1nc2ccc(C)nc2n1-c1ccc2c(c1)CC(=O)N2 next.
-- reply 6.60

-- ask Try Cc1cc(-n2cc(C(F)F)c3ccc(C(F)(F)F)nc32)cc2cn[nH]c12 next.
-- reply 7.90

-- ask Try Cc1cc(-n2c(C(C)C)nc3ccc(C(F)(F)F)nc32)cc2c1NC(=O)C2 next.
-- reply 9.80

-- ask Try Fc1cnc2c(c1)nc(C(F)(F)F)n2-c1cc(Cl)c2[nH]ncc2c1 next.
-- reply 8.90

-- ask Try FCCOc1cc(C(F)(F)F)nc2c1nc(C(F)(F)F)n2-c1cc(Cl)c2[nH]ncc2c1 next.
-- reply 10.30

-- ask Try FC(F)(F)c1nc2ccc(-c3ccccn3)nc2n1-c1ccc2[nH]ncc2c1 next.
-- reply 6.70
